# experimental_target: Cytochrome P450 1A2 (Homo sapiens)
# assay_explanation: Cytochrome panel assay with activity outcomes
# condition_set: recombinant CYP, pro-luciferin dealkylation, luminescence, p450-cyp1a2; series mostly up to 57.1 µM
The campaign covered roughly 16,000 compounds. About 5,700 (36%) were called active. Another 24% or so got no clear call; they are omitted. The call rests on the fitted dose curve; in most records, active means well fitted curve in the direction sought with a large enough effect; inconclusive means small, poorly fitted or top-dose-only effect, or effect the other way; inactive means no such curve, though single readings can be large or run the other way. The list shows a part of the results.
Respond only with the outcome that fits, drawn from active, inactive

Answered examples (5):
compound: Cc1ccc(C2/C(=C(/O)c3ccccc3)C(=O)C(=O)N2CCN2CCOCC2)o1 (stereo not drawn)
classification: inactive
--
compound: CN1C(=O)/C(=N\OC(=O)c2cccc3ccccc23)c2ccccc21
classification: active
--
compound: Cc1ccc(C)c(NC(=O)C2C3CCCC2C3c2ccccc2)c1 (stereo not drawn)
classification: inactive
--
compound: Cc1cccc(CCNc2nc3ccccc3n3nnnc23)c1
classification: active
--
compound: CN(Cc1ccco1)c1cc(-c2cccnc2)ncn1
classification: active

Hi, do you know how CCOC(=O)c1c(C)nc2sc3c(=O)n(-c4ccc(C)cc4)cnc3c2c1-c1ccc(OC)cc1 came out in this test? inactive

Given Nc1nc2c(ncn2COCCO)c(=O)[nH]1 , state the outcome it received in this test. inactive

====

# experimental_target: Cytochrome P450 1A2 (Homo sapiens)
# assay_explanation: Cytochrome panel assay with activity outcomes
# condition_set: recombinant CYP, pro-luciferin dealkylation, luminescence, p450-cyp1a2; series mostly up to 57.1 µM
Out of some 16,000 compounds screened, about 5,700 (36%) were called active. Inconclusive results (about 24%) are left out. Calls follow the shape of the dose curve; as a rule, active = well fitted curve in the direction sought with a large enough effect; inconclusive = small, poorly fitted or top-dose-only effect, or effect the other way; inactive = no such curve, though single readings can be large or run the other way. This is one part of the list.
The categories you may choose from are active, inactive

molecule: CCC[C@@H]1O[C@@H]2C[C@@H]3[C@H]4CCC5=CC(=O)C=C[C@@]5(C)[C@H]4[C@H](O)C[C@@]3(C)[C@@]2(C(=O)CO)O1
experimental_target: Cytochrome P450 1A2 (Homo sapiens)
classification: inactive

molecule: Cc1cccc(CN(C)CCc2ccccn2)c1
experimental_target: Cytochrome P450 1A2 (Homo sapiens)
classification: inactive

molecule: COc1cccc(/C(O)=C2/C(=O)C(=O)N(c3cc(C)on3)C2c2cccs2)c1 (stereo not drawn)
experimental_target: Cytochrome P450 1A2 (Homo sapiens)
classification: inactive

molecule: CCn1c(O)c(/C=N/N=C2CCCC2)c2ccc(C3=NNC(=O)CC3)cc21
experimental_target: Cytochrome P450 1A2 (Homo sapiens)
classification: inactive

molecule: C[C@@H]1c2cccc(O)c2C(O)=C2C(=O)[C@@]3(O)C(O)=C(C(N)=O)C(=O)[C@@H](N(C)C)[C@@H]3[C@@H](O)[C@@H]21
experimental_target: Cytochrome P450 1A2 (Homo sapiens)
classification: inactive

Dear colleague, could you share the recorded outcome for COc1cc(C)ccc1OCCCOc1ccccc1Cl when you have a moment? active

Given CO[C@H]1C=CO[C@]2(C)Oc3c(C)c(O)c4c(O)c(c5c(c4c3C2=O)NC2(CCN(CC(C)C)CC2)N=5)=NC(=O)C(C)=CC=C[C@@H](C)[C@@H](O)[C@@H](C)[C@@H](O)[C@@H](C)[C@@H](OC(C)=O)[C@@H]1C , state the outcome it received in this test. inactive

Hello, I am checking results. What call was entered for COc1cc(C)ccc1OCCOc1cc(C)ccc1Cl ? inactive

====

# experimental_target: Cytochrome P450 1A2 (Homo sapiens)
# assay_explanation: Cytochrome panel assay with activity outcomes
# condition_set: recombinant CYP, pro-luciferin dealkylation, luminescence, p450-cyp1a2; series mostly up to 57.1 µM
Hit rate of the full screen: of about 16,000 compounds, about 5,700 (36%) were called active. Not shown: some 24% with an inconclusive outcome. The call rests on the fitted dose curve; in most records, active means well fitted curve in the direction sought with a large enough effect; inconclusive means small, poorly fitted or top-dose-only effect, or effect the other way; inactive means no such curve, though single readings can be large or run the other way. The list shows a part of the results.
Pick one and only one: active, inactive

Record excerpt, results attached:
test_smiles: NC(=O)C[C@H](NC(=O)Cc1ccc(O)cc1O)C(=O)O
classification: inactive
--
test_smiles: CC(=O)/C=C/c1ccc2ccccc2n1
classification: active
--
test_smiles: O=C(NCc1ccccc1Cl)C1CCN(S(=O)(=O)N2CCC3(CC2)OCCO3)CC1
classification: inactive
--
test_smiles: COc1cccc(-c2cc(NCCc3c[nH]c4ccc(OC)cc34)ncn2)c1
classification: active
--
test_smiles: Cn1cccc1C(=O)N1CCC2(CCN(Cc3nccs3)CC2)CC1
classification: inactive

Hi team, can someone confirm the assay call for CSc1nc(-c2ccc(C)cc2)nc(C(Cl)Cl)n1 ? active
